Where these numbers come from: patent US20240209053A1

- studySystem: ferroportin (Homo sapiens)
- Sequence (Q9NP59 whole entry): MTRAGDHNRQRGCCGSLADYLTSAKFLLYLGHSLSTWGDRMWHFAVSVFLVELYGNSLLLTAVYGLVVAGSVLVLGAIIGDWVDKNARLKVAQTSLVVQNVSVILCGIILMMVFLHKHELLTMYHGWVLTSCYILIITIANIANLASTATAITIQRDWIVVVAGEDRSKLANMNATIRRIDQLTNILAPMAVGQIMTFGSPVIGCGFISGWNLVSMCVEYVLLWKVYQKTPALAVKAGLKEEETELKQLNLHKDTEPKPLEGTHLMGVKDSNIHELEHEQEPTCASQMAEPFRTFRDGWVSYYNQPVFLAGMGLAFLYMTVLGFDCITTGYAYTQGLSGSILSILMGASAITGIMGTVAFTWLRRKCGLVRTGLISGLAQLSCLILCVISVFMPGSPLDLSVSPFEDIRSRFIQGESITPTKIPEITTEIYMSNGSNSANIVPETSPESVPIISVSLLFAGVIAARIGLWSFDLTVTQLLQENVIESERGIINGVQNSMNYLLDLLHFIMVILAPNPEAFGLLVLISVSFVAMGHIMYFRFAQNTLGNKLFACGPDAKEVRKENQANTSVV
- measurementDescription: T47D cell-based ferroportin internalization assay in presence of 0.5% mouse serum albumin (MSA)
- conditionSet: T47D cells
propertyMeasured: IC50

# compound CCCCCCCCCCCCCCCC(=O)NCCCCCC(=O)NCCCC[C@H](NC(=O)C[C@H](Cc1ccccc1)NC(=O)[C@@H]1CC=CCCC[C@H](NC(=O)CC(C)C)C(=O)N[C@@H]([C@@H](C)O)C(=O)N[C@@H](Cc2c[nH]cn2)C(=O)N[C@@H](C(c2ccccc2)c2ccccc2)C(=O)N2CCC[C@H]2C(=O)N[C@@H](C)C(=O)N[C@@H]([C@@H](C)CC)C(=O)N1)C(=O)N[C@H](CCCCN)C(N)=O [Compd 30] ; its IC50 = 1 to 10 nM

# compound CCCCCCCCCCCCCCCC(=O)NCCCCCC(=O)NCCCC[C@H](NC(=O)C[C@H](Cc1ccccc1)NC(=O)[C@@H]1CC=CCC[C@H](NC(=O)CC(C)C)C(=O)N[C@@H]([C@@H](C)O)C(=O)N[C@@H](Cc2c[nH]cn2)C(=O)N[C@@H](C(c2ccccc2)c2ccccc2)C(=O)N2CCC[C@H]2C(=O)N[C@@H](C)C(=O)N[C@@H]([C@@H](C)CC)C(=O)N1)C(=O)N[C@@H](CCCNC(=N)N)C(N)=O [Compd 22] ; its IC50 = 10 to 100 nM

# compound CCCCCCCCCCCCCCCC(=O)NCCCCCC(=O)NCCCC[C@@H]1NC(=O)[C@@H]2CCCN2C(=O)[C@H](C(c2ccccc2)c2ccccc2)NC(=O)[C@H](Cc2c[nH]cn2)NC(=O)[C@H]([C@@H](C)O)NC(=O)[C@@H](NC(=O)CC(C)C)CCC=CCC[C@@H](C(=O)N[C@H](CC(=O)N[C@H](CCCCN)C(N)=O)Cc2ccccc2)NC(=O)[C@H]([C@@H](C)CC)NC1=O [Compd 36] ; its IC50 = 1 to 10 nM
